molecular target: Aryl hydrocarbon receptor (Homo sapiens) (UniProt P35869); assay: AHR activators, primary screen, cell-based, luminescence, luciferase reporter, human (AID 2796); conditions: AHR-responsive luciferase reporter cells, at 5 µM;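 also: 0% = vehicle wells and 100% = reference agonist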
Sequence (P35869 whole entry, looked up): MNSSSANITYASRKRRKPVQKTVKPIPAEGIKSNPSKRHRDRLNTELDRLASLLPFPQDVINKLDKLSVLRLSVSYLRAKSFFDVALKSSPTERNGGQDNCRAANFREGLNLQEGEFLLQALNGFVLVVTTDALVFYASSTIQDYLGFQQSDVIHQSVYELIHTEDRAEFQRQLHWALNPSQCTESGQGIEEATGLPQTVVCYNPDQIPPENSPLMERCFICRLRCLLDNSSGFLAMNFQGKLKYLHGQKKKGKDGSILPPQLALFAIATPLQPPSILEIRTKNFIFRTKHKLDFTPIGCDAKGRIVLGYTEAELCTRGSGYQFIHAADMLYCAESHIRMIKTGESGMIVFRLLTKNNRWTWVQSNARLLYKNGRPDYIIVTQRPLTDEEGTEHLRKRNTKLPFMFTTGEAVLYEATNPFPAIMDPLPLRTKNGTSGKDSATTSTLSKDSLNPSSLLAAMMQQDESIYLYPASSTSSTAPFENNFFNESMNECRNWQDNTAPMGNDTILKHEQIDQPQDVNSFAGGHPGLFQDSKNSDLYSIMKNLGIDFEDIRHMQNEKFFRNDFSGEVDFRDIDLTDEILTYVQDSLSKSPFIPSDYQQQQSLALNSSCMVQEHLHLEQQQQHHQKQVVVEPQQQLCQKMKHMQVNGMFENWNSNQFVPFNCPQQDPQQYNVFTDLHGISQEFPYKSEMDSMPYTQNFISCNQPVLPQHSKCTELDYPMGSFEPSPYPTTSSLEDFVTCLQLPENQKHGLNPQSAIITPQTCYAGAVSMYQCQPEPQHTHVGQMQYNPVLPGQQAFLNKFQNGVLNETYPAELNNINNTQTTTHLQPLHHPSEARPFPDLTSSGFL
Out of some 320,000 compounds screened, about 8,000 (2.5%) were called active. Rule as the data show it: active = activation above about 47%; inactive = the rest. The list comes from a sample in which actives are over-represented; it also holds close analogues and randomly drawn compounds.
Outcomes: active, inactive

| Molecule | System | Discrete Label |
| --- | --- | --- |
| NC(=O)c1ccccc1N=Cc1ccc2ccccc2c1 | Aryl hydrocarbon receptor (Homo sapiens) (UniProt P35869) | active |
| CN(C(=O)COC(=O)Cn1cnc2c1c(=O)n(C)c(=O)n2C)C1(C#N)CCCCC1 | Aryl hydrocarbon receptor (Homo sapiens) (UniProt P35869) | inactive |
| Cc1ccsc1C(=O)NC1CCCCC1C (stereo unspecified) | Aryl hydrocarbon receptor (Homo sapiens) (UniProt P35869) | inactive |
| COc1ccc(/C=N/Nc2ccccc2C(=O)O)cc1 | Aryl hydrocarbon receptor (Homo sapiens) (UniProt P35869) | inactive |
| Cc1ccc(C(=O)Nc2ccc3c(c2)OCO3)cc1S(=O)(=O)N1CCCCC1 | Aryl hydrocarbon receptor (Homo sapiens) (UniProt P35869) | inactive |
| CC(C)n1cnc2c(Nc3cccc(Cl)c3)nc(N(CCO)CCCO)nc21 | Aryl hydrocarbon receptor (Homo sapiens) (UniProt P35869) | active |
| COc1ccc(NC(=O)C(CC(C)C)NS(=O)(=O)c2ccc3c(c2)CCN3C(C)=O)cc1OC (stereo unspecified) | Aryl hydrocarbon receptor (Homo sapiens) (UniProt P35869) | inactive |
| c1ccc(C2=Nc3cccc4cccc(c34)N2)cc1 | Aryl hydrocarbon receptor (Homo sapiens) (UniProt P35869) | inactive |
| OCCCNc1nccc(-c2cc(Nc3cccc(Cl)c3)ncn2)n1 | Aryl hydrocarbon receptor (Homo sapiens) (UniProt P35869) | inactive |
| CC1CCCCC12NC(=O)N(CC(=O)Nc1ccc(S(=O)(=O)Nc3ncccn3)cc1)C2=O (stereo unspecified) | Aryl hydrocarbon receptor (Homo sapiens) (UniProt P35869) | inactive |
| CC1CC(C)CN(C(=O)C2CC(=O)N(c3ccc(F)cc3)C2)C1 (stereo unspecified) | Aryl hydrocarbon receptor (Homo sapiens) (UniProt P35869) | inactive |

* * *

biological target: Aryl hydrocarbon receptor (Homo sapiens); assay: AHR activators, primary screen, cell-based, luminescence, luciferase reporter, human (AID 2796); details: AHR-responsive luciferase reporter cells, at 5 µM;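 also: 0% = vehicle wells and 100% = reference agonist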
Among all 320,000 compounds or so, about 8,000 (2.5%) were called active. No stated cut-off is given here; in the data, active means activation above about 47%; inactive means the rest. Many of the other results were omitted from the sample, so actives are more common in it than they were.
Outcomes: YES = active, NO = inactive

| Compound | Discrete Label |
| --- | --- |
| CN(C)S(=O)(=O)Oc1ccccc1C(=O)Nc1ccccc1Cl | YES |
| CN1CCC(CN)(N2CCN(c3ccccc3)CC2)CC1 | NO |
| O=C(CSC1=NCCS1)Nc1nc(-c2ccccc2)cs1 | NO |
| Cn1c(=O)c(C(=O)Nc2ncccn2)c(O)c2ccccc21 | YES |
| Cc1cc(N2CCOCC2)nc(-c2ccc(Br)cc2)n1 | YES |
| O=C(Nc1ccccc1Cl)c1ccccc1S(=O)(=O)c1ccccc1[N+](=O)[O-] | NO |
| COc1ccc(Nc2nc(-c3ccccc3)cs2)cc1 | YES |
| CCCc1cc(=O)oc2c(C)c(OCC(=O)NCc3ccccn3)ccc12 | YES |
| N#CC1=C(N)Oc2c(ccc3cccnc23)C1c1ccncc1 (configuration not stated) | NO |
| O=C(NCc1ccc2c(c1)OCO2)C(=O)NCC1OCCN1S(=O)(=O)c1ccc(F)cc1 (configuration not stated) | NO |
| N#CC1=C(N)Oc2c(sc3ccccc23)C1c1ccco1 (configuration not stated) | YES |
| CN(CCC1CCOCC1)C(=O)CC1C(=O)NCCN1Cc1cccc(F)c1 (configuration not stated) | NO |
| COC(=O)[C@]1(C)N[C@H](CN(C)C(=O)c2ccc(C(C)(C)C)cc2)[C@@H]2C(=O)N(C)C(=O)[C@@H]21 | NO |
| COc1ccccc1C(=O)Nc1ccccc1C(=O)Nc1ccccc1 | NO |
| COc1cccc(NC(=O)Cn2cnc3sc(C)c(S(=O)(=O)N4CCN(C)CC4)c3c2=O)c1 | NO |
| COc1ccc(Cl)cc1NC(=O)CN(C)C(=O)c1cc2ccccc2cc1OC | NO |
| COCCN1C2=C(COC(C)(C)C2)C(=S)NC1c1ccccc1 (configuration not stated) | NO |
| COc1cccc(NC(=O)[C@H](Cc2c[nH]c3ccccc23)NC(=O)[C@@H]2Cc3ccccc3CN2)c1 | NO |
| C=CCNC(=O)COc1coc(CN2CCN(Cc3ccccc3)CC2)cc1=O | NO |
| Cc1ccc(F)cc1NC(=O)N1CCCN(c2ccc(C(F)(F)F)cn2)CC1 | NO |
| COc1ccccc1NC(=O)CCCc1c[nH]c2ccccc12 | NO |
| O=S(=O)(c1ccc(Br)cc1)c1nc(-c2ccccc2)oc1N1CCOCC1 | NO |

* * *

target: Aryl hydrocarbon receptor (Homo sapiens); assay: AHR activators, primary screen, cell-based, luminescence, luciferase reporter, human (AID 2796); conditions: AHR-responsive luciferase reporter cells, at 5 µM, stronger effect = higher value;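 also: 0% = vehicle wells and 100% = reference agonist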
In all, about 320,000 compounds went through this assay and about 8,000 (2.5%) were called active. The full list was thinned out, with actives kept by preference.
Value Type: activation (%)

| Compound | System | Unit Info | Recorded Measurement |
| --- | --- | --- | --- |
| CCC(C(=O)OC)n1cnc2c(oc3ccccc32)c1=O (stereo unspecified) | Aryl hydrocarbon receptor (Homo sapiens) | % | 2.16 |
| Cn1nnnc1SCC(=O)Nc1sccc1C(N)=O | Aryl hydrocarbon receptor (Homo sapiens) | % | -1.01 |
| NNC(=O)c1oc2nc(-c3ccccc3)cc(-c3ccco3)c2c1N | Aryl hydrocarbon receptor (Homo sapiens) | % | 76.1 |
| CC(=O)NC(=S)Nc1ccc(NC(=O)c2cccnc2)cc1 | Aryl hydrocarbon receptor (Homo sapiens) | % | 0.34 |
| CCOC(=O)c1nc(-c2ccc3c(c2)OCO3)[nH]c1C | Aryl hydrocarbon receptor (Homo sapiens) | % | 102 |
| O=C(NC(=S)N1CCN(Cc2ccccc2)CC1)c1ccccc1 | Aryl hydrocarbon receptor (Homo sapiens) | % | 2.61 |
| O=C(Nc1cccc(F)c1)c1cc(-c2ccco2)nc2ccccc12 | Aryl hydrocarbon receptor (Homo sapiens) | % | 33.2 |
| CCCc1cc(=S)n2c([nH]c3ccccc32)c1C#N | Aryl hydrocarbon receptor (Homo sapiens) | % | 63.8 |
| O=S(=O)(Nc1ccc(Oc2ncccn2)c(Cl)c1)c1ccc(F)cc1 | Aryl hydrocarbon receptor (Homo sapiens) | % | -0.48 |
| CCOC(=O)c1c(C)[nH]c(C(=O)COc2ccc3c(c2)OCO3)c1C | Aryl hydrocarbon receptor (Homo sapiens) | % | 30.7 |
| O=C(CNC(=O)c1cc(=O)[nH]c2ccccc12)Nc1ccc(F)c(F)c1 | Aryl hydrocarbon receptor (Homo sapiens) | % | 70.8 |
| C=CCSc1nnc(Cn2c(=O)sc3ccccc32)n1C | Aryl hydrocarbon receptor (Homo sapiens) | % | 0.37 |
| Cc1cc2ncn(CCCCOc3ccccc3)c2cc1C | Aryl hydrocarbon receptor (Homo sapiens) | % | -0.22 |
| O=C(O)CCCCCNc1ncnc2ccc(Br)cc12 | Aryl hydrocarbon receptor (Homo sapiens) | % | 4.84 |
| Nc1nnnn1/N=C/c1cccc(Br)c1 | Aryl hydrocarbon receptor (Homo sapiens) | % | 0.74 |
| O=C(c1cncc(Br)c1)N1CCN(c2ccc([N+](=O)[O-])cc2)CC1 | Aryl hydrocarbon receptor (Homo sapiens) | % | 52.5 |
| O=C(CN1C(=O)NC(Cc2c[nH]c3ccccc23)C1=O)Nc1ccccc1C(F)(F)F (stereo unspecified) | Aryl hydrocarbon receptor (Homo sapiens) | % | -0.64 |
| O=S(=O)(NCCSc1ccccn1)c1ccc(Cl)cc1 | Aryl hydrocarbon receptor (Homo sapiens) | % | 0.03 |
| Cc1ccc(C(=O)Nc2ccccc2-c2ccccc2)cc1S(=O)(=O)Nc1ccccc1 | Aryl hydrocarbon receptor (Homo sapiens) | % | 2.25 |
| CNC(=S)NNC(=O)c1oc2nc(-c3ccccc3)cc(-c3ccco3)c2c1N | Aryl hydrocarbon receptor (Homo sapiens) | % | 15.9 |
| COc1ccc(C(=O)Nc2cc(S(=O)(=O)N3CCCC3)ccc2Cl)cc1 | Aryl hydrocarbon receptor (Homo sapiens) | % | 3.58 |
| CCOC(=O)c1cc2c(=O)[nH]c(C(Cl)(Cl)Cl)nc2o1 | Aryl hydrocarbon receptor (Homo sapiens) | % | -0.93 |
| CCC(=O)Nc1ccc2nn(-c3ccc(F)cc3)nc2c1 | Aryl hydrocarbon receptor (Homo sapiens) | % | 31.9 |
| CN(C)Cc1c(C#N)c2ccccc2n1C | Aryl hydrocarbon receptor (Homo sapiens) | % | 1.2 |
| Cn1nnnc1SCC(=O)Nc1nc2ccccc2s1 | Aryl hydrocarbon receptor (Homo sapiens) | % | 50.3 |
| COc1ccc(Nc2ncnc3ccc(Br)cc23)c(OC)c1 | Aryl hydrocarbon receptor (Homo sapiens) | % | 52.9 |
| O=C(CN1C(=O)NC2(CCCCCCC2)C1=O)NCc1ccc(F)cc1 | Aryl hydrocarbon receptor (Homo sapiens) | % | 2.09 |
| CCOC(=O)CCc1c(C)c(C#N)c2[nH]c3ccccc3n2c1=O | Aryl hydrocarbon receptor (Homo sapiens) | % | 4.77 |
| CC1CN(c2nc(-c3ccccc3)nnc2-c2ccccc2)CC(C)O1 (stereo unspecified) | Aryl hydrocarbon receptor (Homo sapiens) | % | 10.3 |
| O=C(Nc1ccccc1)Nc1nc2ccccc2s1 | Aryl hydrocarbon receptor (Homo sapiens) | % | 74.5 |
| COc1cc(/C=N/NC(=O)CNC(=O)c2ccncc2)ccc1OC(C)=O | Aryl hydrocarbon receptor (Homo sapiens) | % | 0.59 |
| COc1ccccc1C(=O)NCCC(=O)NN1C(=O)NC2(CCCCC2)C1=O | Aryl hydrocarbon receptor (Homo sapiens) | % | -0.92 |
| COc1ccc(C)cc1Nc1nc(C)nc2c1oc1ccccc12 | Aryl hydrocarbon receptor (Homo sapiens) | % | 13.4 |
| Cc1ccc(S(=O)(=O)N(CC(=O)Nc2cccc([N+](=O)[O-])c2)Cc2ccc(Cl)cc2)cc1 | Aryl hydrocarbon receptor (Homo sapiens) | % | 6.55 |
| COc1cc(/C=N/NC(=O)c2cccnc2)ccc1OC(=O)c1cccc(Br)c1 | Aryl hydrocarbon receptor (Homo sapiens) | % | 18.7 |
| COc1ccc(C2OCC3(CO2)SC(=O)NC3=O)cc1OC (stereo unspecified) | Aryl hydrocarbon receptor (Homo sapiens) | % | 3.57 |
| CCN1C(=O)C(C(=O)NC(C)c2ccccc2)C2CC1(C)Oc1ccccc12 (stereo unspecified) | Aryl hydrocarbon receptor (Homo sapiens) | % | 2.9 |
| COc1ccc(/C=N/NC(=O)c2ccc3c(c2)OCCO3)c(OC)c1 | Aryl hydrocarbon receptor (Homo sapiens) | % | 2.32 |
| CSC1=N/C(=C\C=C\c2cccs2)C(=O)S1 | Aryl hydrocarbon receptor (Homo sapiens) | % | 8.97 |
| Cc1cc(Br)ccc1NC(=O)c1cnc(N2CCN(c3ccccn3)CC2)c2ccccc12 | Aryl hydrocarbon receptor (Homo sapiens) | % | 20.2 |
| COc1ccc(/C=N/n2nnnc2N)cc1OC | Aryl hydrocarbon receptor (Homo sapiens) | % | 9.89 |
| O=C(c1cc(C(=O)N2CCN(c3ccc(F)cc3)CC2)cc([N+](=O)[O-])c1)N1CCN(c2ccc(F)cc2)CC1 | Aryl hydrocarbon receptor (Homo sapiens) | % | 3.86 |
| CC(C)NS(=O)(=O)c1ccc(NC(=O)c2cccnc2)cc1 | Aryl hydrocarbon receptor (Homo sapiens) | % | 0.76 |
| c1ccc2c(c1)CCc1snnc1-2 | Aryl hydrocarbon receptor (Homo sapiens) | % | 2.81 |
| COc1ccccc1Nc1ncnc2c1oc1ccccc12 | Aryl hydrocarbon receptor (Homo sapiens) | % | 86.1 |
| CN(Cc1ccccc1)C(=O)C(=O)c1cn(CC(=O)N2CCCC2)c2ccccc12 | Aryl hydrocarbon receptor (Homo sapiens) | % | 0.47 |
